- Target or test system: recombinant human ALK5 (TGF-βR1) protein (Homo sapiens)
- Sequence (P36897 34-503): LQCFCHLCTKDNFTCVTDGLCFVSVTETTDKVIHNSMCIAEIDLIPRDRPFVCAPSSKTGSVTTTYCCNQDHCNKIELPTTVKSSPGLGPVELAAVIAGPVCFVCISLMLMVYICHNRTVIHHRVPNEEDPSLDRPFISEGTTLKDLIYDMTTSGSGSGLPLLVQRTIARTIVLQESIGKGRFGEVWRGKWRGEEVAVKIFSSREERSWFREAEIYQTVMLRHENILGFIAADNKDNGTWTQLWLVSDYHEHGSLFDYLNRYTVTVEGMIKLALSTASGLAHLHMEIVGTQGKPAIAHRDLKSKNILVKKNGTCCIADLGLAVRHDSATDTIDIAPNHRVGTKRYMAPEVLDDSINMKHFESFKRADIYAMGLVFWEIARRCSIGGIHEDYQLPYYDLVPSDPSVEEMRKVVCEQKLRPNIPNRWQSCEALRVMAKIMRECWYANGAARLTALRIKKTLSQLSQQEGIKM
- Method summary: Biochemical ALK5 (TGF-βR1) assay to measure pKi (LANCE Ultra ULight kinase assay)
- Condition: apparent pKi, converted from pIC50 using the Cheng-Prusoff equation
Quantity measured: Ki

[[record]]
compound = "Fc1cc(F)c(-c2n[nH]cc2-c2ccc3ncc(-c4nc5n(n4)CCNC5)cc3n2)cc1Cl"
result = "0.0398 to 0.316 nM"

[[record]]
compound = "CNCCn1ccc(-c2cnc3ccc(-c4c[nH]nc4-c4cc(Cl)c(F)cc4F)nc3c2)n1"
result = "≤ 0.0316 nM"

[[record]]
compound = "C[C@@H]1CN(CCNc2cnc3ccc(-c4nc[nH]c4-c4cc(Cl)ccc4F)nc3c2)C[C@H](C)N1"
result = "0.0398 to 0.316 nM"

[[record]]
compound = "Fc1ccc(Cl)cc1-c1n[nH]cc1-c1ccc2ncc(-c3nnn4c3NCCC4)cc2n1"
result = "0.0398 to 0.316 nM"

[[record]]
compound = "CC1(C)CCCN1CCNc1cnc2ccc(-c3nc[nH]c3-c3cc(Cl)ccc3F)nc2c1"
result = "0.0398 to 0.316 nM"

[[record]]
compound = "NCCn1cc(-c2cnc3ccc(-c4nc[nH]c4-c4ccc(F)c(F)c4)cc3c2)cn1"
result = "0.0398 to 0.316 nM"

[[record]]
compound = "CNCCn1cc(-c2cnc3ccc(-c4c[nH]nc4-c4ccc(F)c(F)c4)nc3c2)nn1"
result = "0.0398 to 0.316 nM"

[[record]]
compound = "Fc1ccc(Cl)cc1-c1nc2ccccn2c1-c1ccc2ncc(-c3cnn4c3CNCC4)cc2n1"
result = "0.0398 to 0.316 nM"

[[record]]
compound = "COC(=O)[C@@H]1CN(c2cnc3ccc(-c4c[nH]nc4-c4cc(Cl)c(F)cc4F)nc3c2)CCN1"
result = "0.398 to 3.16 nM"

[[record]]
compound = "Fc1ccc(-c2n[nH]cc2-c2ccc3ncc(N4CCNCC4)cc3n2)cc1F"
result = "3.98 to 31.6 nM"

[[record]]
compound = "CNCCn1cc(-c2cnc3ccc(-c4nc[nH]c4-c4cc(Cl)c(F)cc4F)cc3c2)cn1"
result = "0.0398 to 0.316 nM"

[[record]]
compound = "Fc1ccc(Cl)cc1-c1n[nH]cc1-c1ccc2ncc(-c3[nH]nc4c3CCNC4)cc2n1"
result = "0.0398 to 0.316 nM"

[[record]]
compound = "CN(C)C1CN(c2cnc3ccc(-c4c[nH]nc4-c4cc(Cl)c(F)cc4F)nc3c2)C1"
result = "0.0398 to 0.316 nM"

[[record]]
compound = "CN(C)CCN1CCN(c2cnc3ccc(-c4c[nH]nc4-c4cc(Cl)ccc4F)nc3c2)CC1"
result = "≤ 0.0316 nM"

[[record]]
compound = "Fc1ccc(Cl)cc1-c1n[nH]cc1-c1ccc2ncc(C3CCNC3)cc2n1 (stereo not shown)"
result = "3.98 to 31.6 nM"

[[record]]
compound = "Fc1cc(F)c(-c2n[nH]cc2-c2ccc3ncc(-c4[nH]nc5c4CCN5)cc3n2)cc1Cl"
result = "0.0398 to 0.316 nM"


Where these numbers come from: patent US11730720B2
